System: Eimeria tenella Eli Lilly Strain 65 (Lilly 65)
Protocol Details: In vitro anticoccidial test in chick kidney cell monolayers
Type: cell-based
Condition Context: 72 h, 1.0 ppm, 3 days, read-out: % Inhibition of Coccidia
Quantity Name: inhibition at 1 ppm (%)
Entry rule: numbers only, all in %.

Request: Return reported inhibition at 1 ppm; argument: Oc1ccc(Cl)cc1C1=Nc2cc(Cl)c(Cl)cc2NC1c1cc(Cl)ccc1O (stereo not shown)
Response: 98

Request: Return reported inhibition at 1 ppm; argument: Oc1ccc(Cl)cc1C1=Nc2ccccc2NC1c1cc(Cl)ccc1O (stereo not shown)
Response: 31

Request: Return reported inhibition at 1 ppm; argument: Oc1ccccc1C1=Nc2cc(Cl)c(Cl)cc2NC1c1ccccc1O (stereo not shown)
Response: 100

Request: Return reported inhibition at 1 ppm; argument: COc1ccc(C2=Nc3cc(C)c(C)cc3NC2c2ccc(OC)cc2O)c(O)c1 (stereo not shown)
Response: 99

====

Test system: Clostridium perfringens (Cp)
Type: cell-based
Condition Context: 64 ppm; Anaerobic; 6 h, 37° C.
Quantity Name: Growth of Cp in the presence of the test compound

- Compound String: "CC[C@H]1OC(=O)[C@H](C)[C@@H](O[C@H]2C[C@@](C)(OC)[C@@H](O)[C@H](C)O2)[C@H](C)[C@@H](O[C@@H]2O[C@H](C)C[C@H](N(C)C)[C@H]2O)[C@](C)(O)C[C@@H](C)C(=O)[C@H](C)[C@@H](O)[C@]1(C)O"
  Observed: "+"
- Compound String: "CC[C@H]1OC(=O)C[C@@H](O)[C@H](C)[C@@H](O[C@@H]2O[C@H](C)[C@@H](O[C@H]3C[C@@](C)(O)[C@@H](O)[C@H](C)O3)[C@H](N(C)C)[C@H]2O)[C@@H](CC=O)C[C@@H](C)C(=O)/C=C/C(C)=C/[C@@H]1CO[C@@H]1O[C@H](C)[C@@H](O)[C@@H](OC)[C@H]1OC"
  Observed: "-"

====

Tested on: Streptococcus sp. 1 X A7 (Strep A7)
Assay type: cell-based
Condition Context: 6.4 ppm
Where a SMILES comes first, the peptide text is derived from it. Bridges are numbered along the chain shown (N, C = ends). [ ]: non-standard residue; d: D form. The star is where a group is joined. Ileψ(thiazoline)Cys = CC[C@H](C)[C@H](N)C1=N[C@H](C(=O)*)CS1; dOrn = NCCC[C@@H](N)C(=O)O
Quantity Name: Growth of Strep A7 in the presence of the test compound

- Compound: "CC1(C)S[C@@H]2[C@H](NC(=O)Cc3ccccc3)C(=O)N2[C@H]1C(=O)O [Penicillin]"
  Observed: "-"
- Compound: "CC[C@H](C)[C@H](N)C1=N[C@H](C(=O)N[C@@H](CC(C)C)C(=O)N[C@H](CCC(=O)O)C(=O)N[C@H](C(=O)N[C@H]2CCCCNC(=O)[C@H](CC(N)=O)NC(=O)[C@@H](CC(=O)O)NC(=O)[C@H](Cc3cnc[nH]3)NC(=O)[C@@H](Cc3ccccc3)NC(=O)[C@H]([C@@H](C)CC)NC(=O)[C@@H](CCCN)NC2=O)[C@@H](C)CC)CS1 [Bacitracin] ({Ileψ(thiazoline)Cys}-L[dE]IK[dOrn]I[dF]H[dD]N; lactam 4-C)"
  Observed: "-"
- Compound: "CCC[C@@H]1C[C@@H](C(=O)N[C@@H]([C@H]2O[C@H](SC)[C@H](O)[C@@H](O)[C@H]2O)[C@@H](C)O)N(C)C1 [Lincomycin]"
  Observed: "-"

====

Test system: Bacteroides fragilis (Bf)
Protocol Details: Antimicrobial growth inhibition, Bf
Assay type: cell-based
Condition Context: 64 ppm; Anaerobic; 6 h, 37° C.
Quantity Name: Growth of Bf in the presence of the test compound

- Compound: "CC1(C)S[C@@H]2[C@H](NC(=O)Cc3ccccc3)C(=O)N2[C@H]1C(=O)O [Penicillin]"
  Observed: "-"
- Compound: "CCC[C@@H]1C[C@@H](C(=O)N[C@@H]([C@H]2O[C@H](SC)[C@H](O)[C@@H](O)[C@H]2O)[C@@H](C)O)N(C)C1 [Lincomycin]"
  Observed: "-"
- Compound: "CN(C)[C@@H]1C(O)=C(C(N)=O)C(=O)[C@@]2(O)C(O)=C3C(=O)c4c(O)ccc(Cl)c4[C@@](C)(O)[C@H]3C[C@@H]12 [Chlortetracycline]"
  Observed: "-"

====

Test system: Eimeria tenella Eli Lilly Strain 65 (Lilly 65)
Protocol Details: In vitro anticoccidial test in chick kidney cell monolayers
Format: cell-based
Condition Context: 72 h, 0.01 ppm, 3 days, read-out: % Inhibition of Coccidia
Quantity Name: inhibition at 0.01 ppm (%)
Entry rule: numbers only, all in %.

Request: Entry COc1ccc(C2=Nc3cc(C)c(C)cc3NC2c2ccc(OC)cc2O)c(O)c1 (stereo not shown) , system Eimeria tenella Eli Lilly Strain 65 (Lilly 65): what inhibition at 0.01 ppm was measured?
Response: 9

Request: Entry Oc1ccc(Cl)cc1C1=Nc2cc(Cl)c(Cl)cc2NC1c1cc(Cl)ccc1O (stereo not shown) , system Eimeria tenella Eli Lilly Strain 65 (Lilly 65): what inhibition at 0.01 ppm was measured?
Response: 67

Request: Entry Oc1ccccc1C1=Nc2cc(Cl)c(Cl)cc2NC1c1ccccc1O (stereo not shown) , system Eimeria tenella Eli Lilly Strain 65 (Lilly 65): what inhibition at 0.01 ppm was measured?
Response: 71

Request: Entry Oc1ccc(Cl)cc1C1=Nc2ccccc2NC1c1cc(Cl)ccc1O (stereo not shown) , system Eimeria tenella Eli Lilly Strain 65 (Lilly 65): what inhibition at 0.01 ppm was measured?
Response: 0

====

Please respond with reported inhibition at 0.001 ppm for every item in the list.
Test system: Eimeria tenella Eli Lilly Strain 65 (Lilly 65)
Protocol Details: In vitro anticoccidial test in chick kidney cell monolayers
Assay type: cell-based
Condition Context: 72 h, 0.001 ppm, 3 days, read-out: % Inhibition of Coccidia
Entry rule: numbers only, all in %.

Request: Return reported inhibition at 0.001 ppm; argument: Oc1ccccc1C1=Nc2cc(Cl)c(Cl)cc2NC1c1ccccc1O (stereo not shown) [Example 2]
Response: 42

Request: Return reported inhibition at 0.001 ppm; argument: Oc1ccc(Cl)cc1C1=Nc2ccccc2NC1c1cc(Cl)ccc1O (stereo not shown) [Example 5]
Response: 1

Request: Return reported inhibition at 0.001 ppm; argument: COc1ccc(C2=Nc3cc(C)c(C)cc3NC2c2ccc(OC)cc2O)c(O)c1 (stereo not shown) [Example 8]
Response: 0

Request: Return reported inhibition at 0.001 ppm; argument: Oc1ccc(Cl)cc1C1=Nc2cc(Cl)c(Cl)cc2NC1c1cc(Cl)ccc1O (stereo not shown) [Example 1]
Response: 53

====

Test system: Bacteroides fragilis (Bf)
Protocol Details: Antimicrobial growth inhibition, Bf
Assay type: cell-based
Condition Context: 6.4 ppm; Anaerobic; 6 h, 37° C.
Where a SMILES comes first, the peptide text is derived from it. Bridges are numbered along the chain shown (N, C = ends). [ ]: non-standard residue; d: D form. The star is where a group is joined. Ileψ(thiazoline)Cys = CC[C@H](C)[C@H](N)C1=N[C@H](C(=O)*)CS1; dOrn = NCCC[C@@H](N)C(=O)O
Quantity Name: Growth of Bf in the presence of the test compound

- Molecule: "NC[C@H]1O[C@H](O[C@H]2[C@H](O)[C@@H](O[C@H]3O[C@H](CO)[C@@H](O)[C@H](N)[C@H]3O)[C@H](N)C[C@@H]2N)[C@H](O)[C@@H](O)[C@@H]1O"
  Observed: "-"
- Molecule: "CN(C)[C@@H]1C(O)=C(C(N)=O)C(=O)[C@@]2(O)C(O)=C3C(=O)c4c(O)ccc(Cl)c4[C@@](C)(O)[C@H]3C[C@@H]12"
  Observed: "+"
- Molecule: "CC[C@H](C)[C@H](N)C1=N[C@H](C(=O)N[C@@H](CC(C)C)C(=O)N[C@H](CCC(=O)O)C(=O)N[C@H](C(=O)N[C@H]2CCCCNC(=O)[C@H](CC(N)=O)NC(=O)[C@@H](CC(=O)O)NC(=O)[C@H](Cc3cnc[nH]3)NC(=O)[C@@H](Cc3ccccc3)NC(=O)[C@H]([C@@H](C)CC)NC(=O)[C@@H](CCCN)NC2=O)[C@@H](C)CC)CS1 [Bacitracin] ({Ileψ(thiazoline)Cys}-L[dE]IK[dOrn]I[dF]H[dD]N; lactam 4-C)"
  Observed: "-"
- Molecule: "CCC[C@@H]1C[C@@H](C(=O)N[C@@H]([C@H]2O[C@H](SC)[C@H](O)[C@@H](O)[C@H]2O)[C@@H](C)O)N(C)C1"
  Observed: "-"

====

Tested on: Clostridium perfringens (Cp)
Type: cell-based
Condition Context: 64 ppm; Anaerobic; 6 h, 37° C.
Where a SMILES comes first, the peptide text is derived from it. Bridges are numbered along the chain shown (N, C = ends). [ ]: non-standard residue; d: D form. The star is where a group is joined. Ileψ(thiazoline)Cys = CC[C@H](C)[C@H](N)C1=N[C@H](C(=O)*)CS1; dOrn = NCCC[C@@H](N)C(=O)O
Quantity Name: Growth of Cp in the presence of the test compound

- Compound: "NC[C@H]1O[C@H](O[C@H]2[C@H](O)[C@@H](O[C@H]3O[C@H](CO)[C@@H](O)[C@H](N)[C@H]3O)[C@H](N)C[C@@H]2N)[C@H](O)[C@@H](O)[C@@H]1O"
  Observed: "+"
- Compound: "Oc1ccc(Cl)cc1C1=Nc2cc(Cl)c(Cl)cc2NC1c1cc(Cl)ccc1O (stereo not drawn)"
  Observed: "-"
- Compound: "CCC[C@@H]1C[C@@H](C(=O)N[C@@H]([C@H]2O[C@H](SC)[C@H](O)[C@@H](O)[C@H]2O)[C@@H](C)O)N(C)C1"
  Observed: "+"
- Compound: "CC1(C)S[C@@H]2[C@H](NC(=O)Cc3ccccc3)C(=O)N2[C@H]1C(=O)O"
  Observed: "+"
- Compound: "CC[C@H](C)[C@H](N)C1=N[C@H](C(=O)N[C@@H](CC(C)C)C(=O)N[C@H](CCC(=O)O)C(=O)N[C@H](C(=O)N[C@H]2CCCCNC(=O)[C@H](CC(N)=O)NC(=O)[C@@H](CC(=O)O)NC(=O)[C@H](Cc3cnc[nH]3)NC(=O)[C@@H](Cc3ccccc3)NC(=O)[C@H]([C@@H](C)CC)NC(=O)[C@@H](CCCN)NC2=O)[C@@H](C)CC)CS1 [Bacitracin] ({Ileψ(thiazoline)Cys}-L[dE]IK[dOrn]I[dF]H[dD]N; lactam 4-C)"
  Observed: "-"

Now look at this one.
Request: Return reported Growth of Cp in the presence of the test compound; argument: `CN(C)[C@@H]1C(O)=C(C(N)=O)C(=O)[C@@]2(O)C(O)=C3C(=O)c4c(O)ccc(Cl)c4[C@@](C)(O)[C@H]3C[C@@H]12`
Response: +
